Cited source for all entries: paper PMC6270163

This listing pairs molecules with measured viability at 24 h, 100 µM.
test: Cell viability by MTT reduction; settings: mouse
TEST_READOUT: viability at 24 h, 100 µM

COc1cc([C@H]2OC[C@H]3[C@@H]2CO[C@@H]3c2cc(OC)c(O[C@@H]3O[C@H](CO)[C@@H](O)[C@H](O)[C@H]3O)c(OC)c2)cc(OC)c1O [Compound 8, acanthoside B] ... 82.4%
c1cc2c(cc1[C@@H]1OCC3C1CO[C@H]3c1ccc3c(c1)OCO3)OCO2 (single isomer, unassigned; (-)) [Compound 2, (−)-sesamin] ... 95.5%

---

Below, each entry is listed with its recorded pIC50.
system: LPS-induced NO production in RAW 264.7 macrophage cells; test: Inhibition of LPS-induced NO production (nitrite, Griess reagent); details: read-out: IC50 (concentration that caused 50% inhibition of NO production); LPS-activated RAW 264.7 macrophage cells; pretreated 1 h with compounds, then LPS (1 μg/mL) for 24 h; mean ± SD, three independent experiments
pIC50: −log10 of the molar value.
TEST_READOUT: pIC50

c1cc2c(cc1[C@@H]1OCC3C1CO[C@H]3c1ccc3c(c1)OCO3)OCO2 (single isomer, unassigned; (-)) [Compound 2, (−)-sesamin] ... 4.41
COc1cc([C@H]2OC[C@H]3[C@@H]2CO[C@@H]3c2ccc3c(c2)OCO3)ccc1O [Compound 7, (+)-xanthoxylol] ... 4.67
N=C(N)NN [Aminoguanidine, reference compound] ... 5.19
